- Study target: GST-Bcl-2 (Homo sapiens, UniProt P10415)
- Sequence (P10415 whole entry): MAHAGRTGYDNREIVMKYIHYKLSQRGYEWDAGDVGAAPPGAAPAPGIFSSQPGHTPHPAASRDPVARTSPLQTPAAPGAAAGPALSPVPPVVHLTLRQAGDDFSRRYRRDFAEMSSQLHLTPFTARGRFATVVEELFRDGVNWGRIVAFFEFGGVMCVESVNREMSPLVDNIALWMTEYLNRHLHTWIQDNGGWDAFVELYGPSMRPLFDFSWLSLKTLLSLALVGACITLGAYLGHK
- Method: TR-FRET binding assay, GST-Bcl-2 with F-Bak peptide probe
- Conditions used: TR-FRET Binding Affinity, GST-Bcl-2, F-Bak peptide probe
A collection of compounds and their measured Ki

{"columns": ["Compound", "Study target", "Unit symbol", "Ki"],
 "data": [
  ["O=C(NS(=O)(=O)c1ccc(NCC2CCOCC2)c([N+](=O)[O-])c1)c1ccc(N2CCN(Cc3cc(OCCN4CCOCC4)ccc3-c3ccc(Cl)cc3)CC2)cc1Oc1ccccc1", "GST-Bcl-2 (Homo sapiens, UniProt P10415)", "nM", 0.176],
  ["CN(C)C1CCC(Nc2ccc(S(=O)(=O)NC(=O)c3ccc(N4CCN(CC5=C(c6ccc(Cl)cc6)CC(C)(C)CC5)CC4)cc3Oc3cccc4[nH]ccc34)cc2[N+](=O)[O-])CC1 (stereo not shown)", "GST-Bcl-2 (Homo sapiens, UniProt P10415)", "nM", 0.052],
  ["O=C(NS(=O)(=O)c1ccc(NCC2CCOCC2)c([N+](=O)[O-])c1)c1ccc(N2CCN(Cc3cc(OCCN4CCOCC4)ccc3-c3ccc(Cl)cc3)CC2)cc1Oc1cccc2[nH]ccc12", "GST-Bcl-2 (Homo sapiens, UniProt P10415)", "nM", 0.14],
  ["CN(C)CCOc1ccc(-c2ccc(Cl)cc2)c(CN2CCN(c3ccc(C(=O)NS(=O)(=O)c4ccc(NN5CCN(C)CC5)c([N+](=O)[O-])c4)c(Oc4cccc5[nH]ccc45)c3)CC2)c1", "GST-Bcl-2 (Homo sapiens, UniProt P10415)", "nM", 0.135]
]}
